Molecular target: PI3K-beta (Homo sapiens)
Assay: HTRF in vitro profiling assay for PI3K inhibition (beta isoform)
Settings: PI3K-beta enzyme pIC50 range, 200 pM enzyme, 100 uM ATP, 10 uM PIP2, 150 mM NaCl, corrected pIC50, read-out: PI3K-b Enz Activity
pIC50: −log10 of the molar value.
measured-attribute: pIC50

Completed entries (count: 3):
record-smiles: Cc1nn2c(C(N)=O)cc(N3CCOCC3)nc2c1Cc1cccc2ccccc12
result: 7.00 to 7.90
//
record-smiles: COc1cc(-c2ccncc2)nc2c(Cc3cccc(Cl)c3Cl)c(C)nn12
result: 5.90 to 6.90
//
record-smiles: Cc1nn2c(O)cc(-c3ccncc3)nc2c1Cc1cccc(Cl)c1Cl
result: 9.00 to 9.90

Name the recorded pIC50 for Cc1nn2c(O)cc(N3CCOCC3=O)nc2c1Cc1cccc(C(F)(F)F)c1C .
5.90 to 6.90

Entry Cc1nn2c(-c3nc[nH]n3)cc(N3CCOCC3)nc2c1Cc1cccc(C(F)(F)F)c1C : reported pIC50 = ?
8.00 to 8.90

Report pIC50 for Cc1nn2c(N)cc(-c3ccncc3)nc2c1Cc1cccc(C(F)(F)F)c1C please.
7.00 to 7.90

What pIC50 value was documented for this compound, COc1nn2c(O)cc(-c3ccncc3)nc2c1Cc1cccc(Cl)c1Cl ?
8.00 to 8.90

Data request, read-out pIC50, for Cc1nn2c(C(=O)O)cc(N3CCOCC3)nc2c1Cc1cccc(C(F)(F)F)c1C
8.00 to 8.90

pIC50 for Cc1nn2c(C(N)=O)cc(N3CCOCC3)nc2c1Cc1cccc(C(F)(F)F)c1C ?
7.00 to 7.90

###

Target: PI3K-beta (Homo sapiens, UniProt P42338)
Sequence (P42338 whole entry, canonical isoform): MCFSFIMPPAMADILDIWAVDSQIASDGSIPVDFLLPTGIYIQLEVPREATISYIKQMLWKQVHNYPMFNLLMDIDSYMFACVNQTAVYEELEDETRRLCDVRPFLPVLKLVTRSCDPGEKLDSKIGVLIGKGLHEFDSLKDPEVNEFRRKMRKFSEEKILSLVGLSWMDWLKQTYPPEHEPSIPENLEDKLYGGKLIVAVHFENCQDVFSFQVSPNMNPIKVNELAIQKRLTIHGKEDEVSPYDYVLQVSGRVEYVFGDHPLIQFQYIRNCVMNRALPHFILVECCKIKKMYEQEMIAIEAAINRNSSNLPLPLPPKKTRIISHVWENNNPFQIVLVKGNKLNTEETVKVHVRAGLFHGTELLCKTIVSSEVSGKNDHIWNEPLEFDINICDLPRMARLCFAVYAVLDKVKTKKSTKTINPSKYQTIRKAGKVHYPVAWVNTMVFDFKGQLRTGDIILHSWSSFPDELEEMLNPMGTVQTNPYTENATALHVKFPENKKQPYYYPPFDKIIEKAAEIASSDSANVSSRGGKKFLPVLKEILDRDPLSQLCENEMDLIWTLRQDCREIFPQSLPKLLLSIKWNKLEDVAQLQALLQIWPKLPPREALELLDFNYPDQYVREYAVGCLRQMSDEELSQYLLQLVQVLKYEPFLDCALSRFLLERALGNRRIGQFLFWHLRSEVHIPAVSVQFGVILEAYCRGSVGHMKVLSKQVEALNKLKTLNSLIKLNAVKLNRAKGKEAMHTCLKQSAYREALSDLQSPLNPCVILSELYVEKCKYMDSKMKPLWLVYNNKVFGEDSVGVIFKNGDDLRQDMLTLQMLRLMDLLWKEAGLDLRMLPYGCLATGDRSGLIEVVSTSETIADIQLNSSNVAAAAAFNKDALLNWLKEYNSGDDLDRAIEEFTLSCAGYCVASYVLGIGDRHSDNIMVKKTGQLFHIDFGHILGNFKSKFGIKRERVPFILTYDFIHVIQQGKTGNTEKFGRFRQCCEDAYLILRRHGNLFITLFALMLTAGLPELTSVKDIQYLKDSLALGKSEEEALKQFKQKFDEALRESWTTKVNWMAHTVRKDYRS
Sequence (P27986 whole entry partner, canonical isoform): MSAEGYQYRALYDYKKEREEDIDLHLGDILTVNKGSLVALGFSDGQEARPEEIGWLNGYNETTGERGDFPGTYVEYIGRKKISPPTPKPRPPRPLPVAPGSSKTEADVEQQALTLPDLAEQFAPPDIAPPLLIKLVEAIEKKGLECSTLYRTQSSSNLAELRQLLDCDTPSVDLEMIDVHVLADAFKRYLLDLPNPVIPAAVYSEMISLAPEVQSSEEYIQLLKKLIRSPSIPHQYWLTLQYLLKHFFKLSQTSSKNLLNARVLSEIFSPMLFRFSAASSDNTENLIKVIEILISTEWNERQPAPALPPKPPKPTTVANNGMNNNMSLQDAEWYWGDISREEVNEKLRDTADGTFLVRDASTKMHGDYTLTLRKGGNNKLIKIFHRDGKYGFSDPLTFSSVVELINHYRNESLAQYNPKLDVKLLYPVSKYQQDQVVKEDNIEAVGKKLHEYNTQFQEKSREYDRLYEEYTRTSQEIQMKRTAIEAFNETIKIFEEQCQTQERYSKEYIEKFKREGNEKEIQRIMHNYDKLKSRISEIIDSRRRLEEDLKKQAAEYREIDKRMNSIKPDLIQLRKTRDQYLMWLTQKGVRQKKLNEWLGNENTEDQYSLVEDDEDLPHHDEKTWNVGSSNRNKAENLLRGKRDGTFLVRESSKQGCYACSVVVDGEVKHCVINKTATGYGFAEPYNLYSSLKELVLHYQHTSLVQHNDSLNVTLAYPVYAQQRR
Assay: HTRF in vitro profiling assay for PI3K inhibition (beta isoform)
Conditions: PI3K-beta enzyme pIC50 range, 200 pM enzyme, 100 uM ATP, 10 uM PIP2, 150 mM NaCl, corrected pIC50, read-out: PI3K-b Enz Activity
Measured IC50 of individual entries

molecule: Cc1nn2c(C#N)cc(N3CCOCC3)nc2c1Cc1cccc(C(F)(F)F)c1C
IC50: 126 to 1260 nM

Quick check: IC50 on PI3K-beta (Homo sapiens, UniProt P42338), item CC1CN(c2cc(O)n3nc(C(F)(F)F)c(Cc4cccc(Cl)c4Cl)c3n2)CCO1 (centres unmarked) ?
1.26 to 10 nM

Tell me reported IC50 for Cc1nn2c(N)cc(N3CCOCC3)nc2c1Cc1cccc2ccccc12 , tested with PI3K-beta (Homo sapiens, UniProt P42338).
12.6 to 100 nM

Request body: readout IC50, system PI3K-beta (Homo sapiens, UniProt P42338), query Cc1nn2c(O)cc(N3CCOCC3)nc2c1Cc1cccc2ccccc12 . Return the value.
0.126 to 1 nM

API: value(readout= IC50, system= PI3K-beta (Homo sapiens, UniProt P42338), query= Cc1nn2c(C(=O)O)cc(N3CCOCC3)nc2c1Cc1cccc2ccccc12 )
12.6 to 100 nM

###

pIC50 values by entry
System: pAKT(Ser473) in MDA-MB-468 cells
Assay: pAKT(Ser473) assay in MDA-MB-468 cells
Type: cell-based
Settings: Homo sapiens, 0.5 h, compound treatment 30 minutes, MSD ELISA phospho AKT(Ser473), given as ranges, read-out: Cell Activity—pAKT IC50 in MDA-MB-468
pIC50: −log10 of the molar value. Where a name gives a salt, the structure may show the parent alone.

The examples below pair each entry with its known result.
compound: CCc1nn2c(O)cc(C3CCOCC3)nc2c1Cc1cccc(Cl)c1Cl
result: < 4.70
--
compound: Cc1nn2c(O)cc(N3CCOCC3=O)nc2c1Cc1cccc(C(F)(F)F)c1C
result: < 4.70
--
compound: Cc1nn2ccc(C3CCOCC3)nc2c1Cc1cccc(C(F)(F)F)c1C
result: < 4.70
--
compound: Cc1nn2c(N)cc(N3CCOCC3)nc2c1Cc1cccc(C(F)(F)F)c1C
result: > 6.00
--
compound: Cc1nn2c(N)cc(N3CCOCC3)nc2c1Cc1cccc2ccccc12
result: > 6.00

Fill in the blank: the reported pIC50 of Nc1nn2c(O)cc(C3CCOCC3)nc2c1Cc1cccc(Cl)c1Cl [Example 26, hydrochloride] is ____.
5.30 to 6.00

Consider the compound CC1CN(c2cc(O)n3nc(C(F)(F)F)c(Cc4cccc(Cl)c4Cl)c3n2)CCO1 (centres unmarked) and give its measured pIC50.
5.00 to 5.22

State the recorded pIC50 for this entry: Cc1nn2c(-c3nc[nH]n3)cc(N3CCOCC3)nc2c1Cc1cccc(C(F)(F)F)c1C
5.00 to 5.22

###

Target: PI3K-beta (Homo sapiens)
Test: HTRF in vitro profiling assay for PI3K inhibition (beta isoform)
Conditions: PI3K-beta enzyme pIC50 range, 200 pM enzyme, 100 uM ATP, 10 uM PIP2, 150 mM NaCl, corrected pIC50, read-out: PI3K-b Enz Activity
pIC50: −log10 of the molar value. Counter-ions that a name gives are not always drawn.
The entries below come with measured pIC50 values attached.

compound: Cc1ccccc1Cc1c(C)n(C)n2c(=O)cc(-c3ccncc3)nc12 [Example 51]
pIC50: 5.90 to 6.90

compound: Cc1c(Cc2c(N)nn3c(O)cc(N4CCOCC4)nc23)cccc1C(F)(F)F [Example 24]
pIC50: 8.00 to 8.90

compound: Cc1c(Cc2cnn3c(-c4cn[nH]c4)cc(N4CCOCC4)nc23)cccc1C(F)(F)F [Example 48]
pIC50: 5.90 to 6.90

compound: CC(=O)Nc1cc(N2CCOCC2)nc2c(Cc3cccc(C(F)(F)F)c3C)c(C)nn12 [Example 18]
pIC50: 5.90 to 6.90

compound: Nc1nn2c(O)cc(C3CCOCC3)nc2c1Cc1cccc(Cl)c1Cl [Example 26, hydrochloride]
pIC50: 8.00 to 8.90

// below: pIC50 requested for another compound
For the compound shown here, Cc1cccc(Cc2cnn3c(O)cc(-c4ccncc4)nc23)c1C [Example 14] , give the reported pIC50.
8.00 to 8.90

The reported measurements were obtained from patent US9096605B2.
